Just for reference, patent US20210198277A1 is where these values come from.

Molecular target: EHMT2 (Homo sapiens, UniProt Q96KQ7)
Construct: host or cells: MDA-MB-231
Sequence (Q96KQ7 whole entry): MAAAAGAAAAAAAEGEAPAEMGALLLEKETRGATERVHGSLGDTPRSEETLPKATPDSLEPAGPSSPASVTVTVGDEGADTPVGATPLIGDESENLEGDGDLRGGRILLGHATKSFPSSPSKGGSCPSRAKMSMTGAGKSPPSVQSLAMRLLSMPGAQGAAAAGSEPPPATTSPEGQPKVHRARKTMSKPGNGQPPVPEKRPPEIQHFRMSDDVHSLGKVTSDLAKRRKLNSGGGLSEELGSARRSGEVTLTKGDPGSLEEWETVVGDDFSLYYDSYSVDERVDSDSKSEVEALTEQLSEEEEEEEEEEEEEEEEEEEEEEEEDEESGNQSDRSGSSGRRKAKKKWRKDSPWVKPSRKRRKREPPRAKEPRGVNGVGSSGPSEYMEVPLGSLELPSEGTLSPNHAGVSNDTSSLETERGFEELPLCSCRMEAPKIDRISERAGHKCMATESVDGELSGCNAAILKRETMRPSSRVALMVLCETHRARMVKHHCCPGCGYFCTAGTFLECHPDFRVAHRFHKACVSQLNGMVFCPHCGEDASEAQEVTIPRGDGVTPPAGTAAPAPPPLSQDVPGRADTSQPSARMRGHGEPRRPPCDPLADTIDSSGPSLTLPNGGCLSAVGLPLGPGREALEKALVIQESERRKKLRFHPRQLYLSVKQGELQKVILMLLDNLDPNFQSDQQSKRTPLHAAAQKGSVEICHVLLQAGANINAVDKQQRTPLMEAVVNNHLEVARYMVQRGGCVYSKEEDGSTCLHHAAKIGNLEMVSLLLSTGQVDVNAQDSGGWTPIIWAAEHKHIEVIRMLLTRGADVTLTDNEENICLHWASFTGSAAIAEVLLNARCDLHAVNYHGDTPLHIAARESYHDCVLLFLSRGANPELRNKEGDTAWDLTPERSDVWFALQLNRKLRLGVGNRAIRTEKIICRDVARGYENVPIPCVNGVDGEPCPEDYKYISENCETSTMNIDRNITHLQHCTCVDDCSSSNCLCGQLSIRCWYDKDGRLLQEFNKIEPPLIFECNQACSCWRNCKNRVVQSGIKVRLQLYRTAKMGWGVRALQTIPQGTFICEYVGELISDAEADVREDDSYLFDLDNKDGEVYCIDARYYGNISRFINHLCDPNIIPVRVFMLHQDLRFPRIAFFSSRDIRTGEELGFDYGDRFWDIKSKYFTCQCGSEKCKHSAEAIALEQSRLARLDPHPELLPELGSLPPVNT
Assay: MDA-MB-231 H3K9me2 in-cell Western assay (EHMT2 ICW)
Assay type: cell-based
Settings: Table VI; read-out: EHMT2 ICW IC50
READOUT_KIND: IC50

Task: Record request: IC50 value, item COc1cnc(Nc2cccn3cncc23)cc1OCCCN1CCCC1 [Compound 638]
Output: > 10 µM

***
Task: Which measured IC50 value corresponds to CNc1nc(C2=CC(C)(C)NC(C)(C)C2)c2cc(OC)c(OCCCN3CCCC3)cc2n1 [Compound 961] ?
Output: > 10 µM

Task: # IC50 lookup, item CNc1cc(C)nc(Nc2ccc(OC)c(CN[C@@H]3CCNC3)c2)c1 [Compound 814]
Output: > 10 µM

Task: Can you look up the measured IC50 of COc1cc2cc(F)c(C)nc2cc1OCCCN1CCCC1 [Compound 896] for me?
Output: > 10 µM

Task: Which IC50 value belongs to COc1cc2c(C3CCOCC3)cc(C)nc2cc1OCCCN1CCCC1 [Compound 668] ?
Output: 0.1 to 1 µM

---

Biological target: EHMT2 (Homo sapiens, UniProt Q96KQ7)
Construct: host or cells: MDA-MB-231
Assay: MDA-MB-231 H3K9me2 in-cell Western assay (EHMT2 ICW)
Format: cell-based
Settings: Table VI; read-out: EHMT2 ICW IC50
pIC50: −log10 of the molar value.
READOUT_KIND: pIC50

Before answering, review these 4 worked examples.
Task: Item under review: COc1cnc(Nc2ccc3[nH]nnc3c2)cc1OCCCN1CCCC1 [Compound 686] . Reported pIC50?
Output: < 5.00

Task: What pIC50 value was documented for this compound, CNc1cc(C)nc(Nc2ccc(OC)c(C(=O)NC3CCN(C)CC3)c2)n1 [Compound 873] ?
Output: < 5.00

Task: Could you share which pIC50 value was measured for COc1cc2c(C3CCN(C)CC3)cc(-c3cc[nH]n3)nc2cc1OCCCN1CCCC1 [Compound 678] ?
Output: 5.00 to 6.00

Task: Item COc1cc(N(C)C2CCNCC2)ncc1OCC1CCNC1 (stereo not drawn) [Compound 1041] has what recorded pIC50?
Output: < 5.00

Next:
Task: Bench note: what pIC50 did CNc1cc(C)nc(Nc2cnc(OC)c(OCCCN3CCC3)c2)n1 [Compound 949] show?
Output: 6.00 to 7.00

Task: Which pIC50 is listed for COc1cc2c(C3CCN(C(C)=O)CC3)cc(C)nc2cc1OCCCN1CCCC1 [Compound 834] ?
Output: 5.00 to 6.00

Task: Looking for the measured pIC50 of CNCC(C)COc1cc(Nc2nccc(NC)n2)ccc1OC (stereo not drawn) [Compound 1009] , can you help?
Output: 5.00 to 6.00

Task: Form field: reported pIC50 of COc1cc2c(C3CCN(C4CCOC4)CC3)cc(C)nc2cc1OCCCN1CCCC1 (stereo not drawn) [Compound 756]
Output: 6.00 to 7.00

Task: What measured pIC50 goes with COc1ccc(Nc2nc(C)cc(NC3CCCN(C)C3)n2)cc1OCCCN1CCCC1 (stereo not drawn) [Compound 787] ?
Output: 6.00 to 7.00

Task: For the compound shown here, CCS(=O)(=O)N1CCC(c2cc(C)nc3cc(OCCCN4CCCC4)c(OC)cc23)CC1 [Compound 836] , give the reported pIC50.
Output: 5.00 to 6.00

Task: For the compound CCN1CC(COc2cc3nc(NC)nc(C4CCN(C)CC4)c3cc2OC)C1 [Compound 951] , what pIC50 is on record?
Output: 5.00 to 6.00

Task: Consider the compound CNCCN(C)Cc1cc(Nc2nc(C)cc(NC)n2)ccc1OC [Compound 680] and give its measured pIC50.
Output: < 5.00

Task: Reported pIC50, compound CNc1ccnc(Nc2cnc(OC)c(OC[C@@H]3CCN(C)C3)c2)n1 [Compound 912] : ____
Output: 6.00 to 7.00
